# System: L1210
# assay-remarks: Inhibition of [14C]SPD uptake by the compound in 5 min initial rate transport assay in L1210 cells
# Assay type: functional, cell-based, Mus musculus
assay-readout: Ki (nM)

INSERT INTO measurements (input_smiles, result_units, reported) VALUES
  ('Cl.NCCCNCCCCNCCCNCCCCCNc1c2ccccc2nc2ccccc12', 'nM', 135),
  ('Cl.NCCCNCCCCNCCCNCCCCNC(=O)c1c2ccccc2nc2ccccc12', 'nM', 83),
  ('Cl.NCCCNCCCCNCCCNCCCCN=c1c2ccccc2[nH]c2ccccc12', 'nM', 83),
  ('Cl.NCCCNCCCCNCCCNCCCNc1c2ccccc2nc2ccccc12', 'nM', 129),
  ('Cl.NCCCNCCCCNCCCNCCCNC(=O)c1c2ccccc2nc2ccccc12', 'nM', 97),
  ('Cl.NCCCNCCCCNCCCNCCCCCNC(=O)c1c2ccccc2nc2ccccc12', 'nM', 97);
